Just for reference, the supplement of paper PMC6555819 is where these values come from.

Tested on: PPARg DBDmut:RXRa IVT, anti-PPARg (DBD mutation: PPARg1 K132A/R137A, NR concentration 270 nM, RXRa partner concentration 90 nM)
experiment notes: PBM binding z-score (relative to random genomic background probes); higher = stronger binding; sequences stand for … in GC…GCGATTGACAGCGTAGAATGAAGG
experimental readout: PBM binding z-score

>>> reported_result("ATATGTAGGTTTGCTGGGGTCATTCAGACTAGGC")
1.39
>>> reported_result("AGAACGAGGGCACGCTGAGTTGATAGCGGAGTAG")
0.375
>>> reported_result("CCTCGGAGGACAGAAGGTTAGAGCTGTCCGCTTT")
-1.88
>>> reported_result("ACATACGGGTCAACGAGGTTATAGCACGCGTATA")
2.04
>>> reported_result("CCTAGCAGGCCAATCTGGGTCACTCCAGGCTTGA")
-0.633
>>> reported_result("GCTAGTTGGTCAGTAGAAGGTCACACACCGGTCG")
-0.208
